- Tested on: L1210
- ASSAY EXPLANATION: Activity against lymphocytic murine leukemia cell line L1210 using MTS/PES microculture tetrazolium assay
- Format: functional, cell-based
- STUDY CONDITIONS: Mus musculus
ASSAY METRIC: IC50 (µM)
Give bare numbers, in µM.

Illustrative cases are given below, each with its answer.
CHEMICAL STRUCTURE | ASSAYED TARGET | READOUT UNIT | IC50
CC(C)c1ccc2occ(/C=N/NC(=O)NO)c(=O)c2c1 | L1210 | µM | 32.2
NNC(=O)NO | L1210 | µM | 282

Record IC50 per entry; entries follow.
1. Cc1c2ccccc2c(/C=N/NC(=O)NO)c2ccccc12
2. O=C(NO)N/N=C/c1cc(Cl)cc(Cl)c1O

(A)
4.4
6.5

----------
- Tested on: L1210
- ASSAY EXPLANATION: Activity against lymphocytic murine leukemia cell line L1210 using MTS/PES microculture tetrazolium assay
- Format: functional, cell-based
- STUDY CONDITIONS: Mus musculus
Cut-off 300 µM on IC50: below means yes, at or above means no.

(Q) I'd appreciate it if you could check whether O=C(NO)N/N=C/c1cccc([N+](=O)[O-])c1 has IC50 smaller than 300 µM.
(A) no

(Q) In the record for N#Cc1ccc(/C=N/NC(=O)NO)cc1 , is IC50 less than 300 µM?
(A) yes

----------
- Tested on: L1210
- ASSAY EXPLANATION: Activity against lymphocytic murine leukemia cell line L1210 using MTS/PES microculture tetrazolium assay
- Assay type: functional, cell-based
- STUDY CONDITIONS: Mus musculus
pIC50: −log10 of the molar value.
Classify by measured pIC50: met if it is equal to or exceeds 4, not met if it is smaller.

Example results:
COMPOUND | ASSAYED TARGET | ANSWER LABEL
O=C(NO)N/N=C/c1coc2c(Cl)cc(Cl)cc2c1=O | L1210 | met
O=C(NO)N/N=C/c1cccc(C(F)(F)F)c1 | L1210 | met
O=C(NO)N/N=C/c1ccc(OCc2ccccc2)cc1 | L1210 | met
COc1ccc(OC)c(/C=N/NC(=O)NO)c1 | L1210 | met
CC(=O)Nc1ccc(/C=N/NC(=O)NO)cc1 | L1210 | not met

(Q) Hello, I need to know if O=C(NO)N/N=C/c1ccc(-c2ccccc2)cc1 has measured pIC50 not below 4. Thanks!
(A) met

(Q) For this compound, is measured pIC50 4 or higher? O=C(NO)N/N=C/c1ccc(O)c(O)c1O
(A) met

----------
- Test system: L1210
- ASSAY EXPLANATION: Activity against lymphocytic murine leukemia cell line L1210 using MTS/PES microculture tetrazolium assay
- Type: functional, cell-based
- STUDY CONDITIONS: Mus musculus
ASSAY METRIC: pIC50
Numbers only, as −log10 of the molar value.

Look over these answered cases.
CHEMICAL STRUCTURE | pIC50
COc1cc(Br)cc(/C=N/NC(=O)NO)c1O | 4.42
O=C(NO)N/N=C/c1cccc(I)c1 | 4.09
O=C(NO)N/N=C/c1c[nH]c2ccccc12 | 3.32
O=C(NO)N/N=C/c1cc([N+](=O)[O-])cc([N+](=O)[O-])c1O | 3.09

--- query ---
(Q) Form field: reported pIC50 of COc1ccc(/C=N/NC(=O)NO)cc1
(A) 3.50
